Below, each entry is listed with its recorded Ratio.
Experiment: Ratio of solubility to that of paclitaxel solubility
Format: ADME
A bare number is all that is needed in reply.

Sample answers from the record:
| COMPOUND | VALUE |
| --- | --- |
| CC(=O)O[C@H]1C(=O)[C@@]2(C)[C@H]([C@H](OC(=O)c3ccccc3)[C@]3(O)C[C@H](OC(=O)[C@H](O)[C@@H](NC(=O)c4ccccc4)c4ccccc4)C(C)=C1C3(C)C)[C@]1(OC(C)=O)CO[C@@H]1C[C@@H]2O [PACLITAXEL] | 1 |
| CC(=O)O[C@@]12COC1C[C@H](O)[C@@]1(C)C(=O)[C@H](O)C3=C(C)[C@@H](OC(=O)[C@H](O)[C@@H](NC(=O)c4ccsc4)C(C)(C)C)C[C@@](O)([C@@H](OC(=O)c4ccccc4)[C@@H]12)C3(C)C (some centres undefined) | 16 |
| CCOC(=O)N[C@H]([C@@H](O)C(=O)O[C@H]1C[C@@]2(O)[C@@H](OC(=O)c3ccccc3)[C@H]3[C@](C)(C(=O)[C@H](O)C(=C1C)C2(C)C)[C@@H](O)CC1OC[C@]13OC(C)=O)C(C)(C)C (some centres undefined) | 32 |

Turning now to a further record.
Exercise: Check the records and state Ratio for CC(=O)O[C@@]12COC1C[C@H](O)[C@@]1(C)C(=O)[C@H](O)C3=C(C)[C@@H](OC(=O)[C@H](O)[C@@H](NC(=O)OC(C)C)C(C)(C)C)C[C@@](O)([C@@H](OC(=O)c4ccccc4)[C@@H]12)C3(C)C (some centres undefined)
Key: 1.7

* * *

Target: Tubulin beta-1 chain (Homo sapiens) (UniProt Q9H4B7)
Sequence (Q9H4B7 whole entry): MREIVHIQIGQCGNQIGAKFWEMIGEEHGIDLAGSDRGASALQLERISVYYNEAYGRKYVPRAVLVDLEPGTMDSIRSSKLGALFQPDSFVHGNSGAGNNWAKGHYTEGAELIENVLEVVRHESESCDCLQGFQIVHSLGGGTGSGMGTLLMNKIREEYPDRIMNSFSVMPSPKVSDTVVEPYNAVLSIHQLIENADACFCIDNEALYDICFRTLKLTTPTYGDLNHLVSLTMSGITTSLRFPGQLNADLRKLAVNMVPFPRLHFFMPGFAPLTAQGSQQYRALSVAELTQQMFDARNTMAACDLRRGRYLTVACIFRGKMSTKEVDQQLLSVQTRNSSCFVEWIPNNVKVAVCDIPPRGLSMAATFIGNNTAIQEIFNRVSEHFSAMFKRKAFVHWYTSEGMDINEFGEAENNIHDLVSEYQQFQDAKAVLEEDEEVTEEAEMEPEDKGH
Test: Ratio of ED50 of compound to that of ED50 of paclitaxel; ED50 expressed as concentration which causes polymerization of 50% of the tubulin in microtubule assembly assay (in vitro)
Format: functional
METRIC_NAME: ED50 ratio
A bare number is all that is needed in reply.

Exercise: Supply ED50 ratio measured with Tubulin beta-1 chain (Homo sapiens) (UniProt Q9H4B7) for "CC(=O)O[C@@]12CO[C@@H]1C[C@H](O)[C@@]1(C)C(=O)[C@H](O)C3=C(C)[C@@H](OC(=O)[C@H](O)[C@@H](NC(=O)OC(C)(C)C)c4ccccc4)C[C@@](O)([C@@H](OC(=O)c4ccccc4)[C@H]21)C3(C)C.O.O.O" .
Key: 0.45

Exercise: Supply ED50 ratio measured with Tubulin beta-1 chain (Homo sapiens) (UniProt Q9H4B7) for CC(=O)O[C@@]12COC1C[C@H](O)[C@@]1(C)C(=O)[C@H](O)C3=C(C)[C@@H](OC(=O)[C@H](O)[C@@H](NC(=O)c4cccs4)C(C)(C)C)C[C@@](O)([C@@H](OC(=O)c4ccccc4)[C@@H]12)C3(C)C (some centres undefined) .
Key: 0.42

Exercise: Supply ED50 ratio measured with Tubulin beta-1 chain (Homo sapiens) (UniProt Q9H4B7) for CC(=O)O[C@@]12COC1C[C@H](O)[C@@]1(C)C(=O)[C@H](O)C3=C(C)[C@@H](OC(=O)[C@H](O)[C@@H](NC(=O)c4ccoc4)C(C)(C)C)C[C@@](O)([C@@H](OC(=O)c4ccccc4)[C@@H]12)C3(C)C (some centres undefined) .
Key: 1.6

Exercise: Supply ED50 ratio measured with Tubulin beta-1 chain (Homo sapiens) (UniProt Q9H4B7) for CCC(CC)C(=O)N[C@H]([C@@H](O)C(=O)O[C@H]1C[C@@]2(O)[C@@H](OC(=O)c3ccccc3)[C@H]3[C@](C)(C(=O)[C@H](O)C(=C1C)C2(C)C)[C@@H](O)CC1OC[C@]13OC(C)=O)C(C)(C)C (some centres undefined) .
Key: 1.7
